Data origin: ChEMBL document CHEMBL1799918

Test system: SK-MEL-28
Experiment: Cytotoxicity against human SK-MEL-28 cells after 72 hrs by MTT assay
Assay type: functional, cell-based
Conditions: SK-MEL-28, 72 h
recorded.metric: IC50 (µM)
Please state the figure in µM; there is no need to write the unit.

Worked examples follow.
# compound, IC50, µM
data = [
    ("CC(=O)c1ccc(OC/C=C(\\C)CCC=C(C)C)cc1O", 44),
    ("COc1cc(/C=C/C=O)cc(OC)c1OC/C=C(\\C)CCC=C(C)C [NELUMAL A]", 26),
    ("Cc1cc(O)c2c(c1)C(=O)c1cc(O)cc(O)c1C2=O [EMODIN]", 35),
    ("CC(C)=CCC/C(C)=C/COc1cc(O)c2c(c1)C(=O)c1cc(C)cc(O)c1C2=O", 40),
    ("COc1cc(/C=C/CO)cc(OC)c1OC/C=C(\\C)CCC=C(C)C [NELUMOL A]", 72),
]

Exercise: Which IC50 value belongs to COc1cc(/C=C/CO)ccc1OC/C=C(\C)CCC=C(C)C ?
Key: 31

Exercise: What would you report for COc1cc(/C=C/C=O)cc(OC)c1OCC=C(C)C ?
Key: 32

Exercise: What would you report for CC(C)=CCOc1ccc(C(=O)/C=C/c2ccccc2)c(O)c1 [CORDOIN] ?
Key: 81

Exercise: What would you report for CC(=O)c1c(O)cc(OC/C=C(\C)CC/C=C(\C)CCC=C(C)C)cc1O ?
Key: 33

Exercise: What would you report for COc1cc(/C=C/C=O)ccc1O [CONIFERYL ALDEHYDE] ?
Key: 33

----------
System: LoVo
Test: Cytotoxicity against human LoVo cells after 72 hrs by MTT assay
Assay type: functional, cell-based
Entries annotated with measured pIC50
Worth noting: pIC50 values are minus log10 of concentrations stated in mol/L.

Worked examples follow.
# smiles.text, pIC50
rows = [
    ("Cc1cc(O)c2c(c1)C(=O)c1cc(O)cc(O)c1C2=O", 4.57),
    ("CC(=O)c1c(O)cc(OC/C=C(\\C)CC/C=C(\\C)CCC=C(C)C)cc1O", 4.49),
    ("COc1cc(/C=C/C=O)cc(OC)c1O", 4.48),
]

Exercise: Which pIC50 value belongs to COc1cc(/C=C/C=O)ccc1OC/C=C(\C)CCC=C(C)C ?
Key: 4.92

Exercise: What would you report for COc1cc(/C=C/C=O)cc(OC)c1OC/C=C(\C)CCC=C(C)C ?
Key: 4.64

Exercise: What would you report for COc1cc(/C=C/CO)ccc1OC/C=C(\C)CCC=C(C)C ?
Key: 4.57

Exercise: What would you report for CC(C)=CCOc1ccc(C(=O)/C=C/c2ccc(O)cc2)c(O)c1 ?
Key: 4.24

----------
Test: Cytotoxicity against human U373 cells after 72 hrs by MTT assay
Assay type: functional, cell-based, U-373MG ATCC
Conditions: U373 MG
recorded.metric: IC50 (µM)
Please state the figure in µM; there is no need to write the unit.

# smiles.text, IC50, µM
rows = [
    ("COc1c(OCC=C(C)C)ccc2ccc(=O)oc12", 70),
]

Exercise: Which IC50 value belongs to CC(C)=CCC/C(C)=C/CC/C(C)=C/COc1ccc2ccc(=O)oc2c1 ?
Key: 72
